These data points were gathered from ChEMBL document CHEMBL1142722.

Tested on: Human immunodeficiency virus 1
Test: Effective concentration against PI-Resistant HIV strain (M1)
Format: functional, organism-based
observable: EC50 (nM)
// return numeric value only (unit: nM, not printed)

molecule	unit-of-measurement	EC50
CC(C)CN(C[C@@H](O)[C@H](Cc1ccccc1)NC(=O)O[C@H]1CO[C@H]2OCC[C@H]21)S(=O)(=O)c1cccc(N)c1	nM	759
CC(C)CN(C[C@@H](O)[C@H](Cc1ccccc1)NC(=O)OC1COC2OCCC12)S(=O)(=O)c1ccccc1 (mixture of isomers)	nM	166
CC(C)CN(C[C@@H](O)[C@H](Cc1ccccc1)NC(=O)O[C@H]1CO[C@H]2OCC[C@H]21)S(=O)(=O)c1ccc2c(c1)OCO2	nM	32.4
CC(C)CN(C[C@@H](O)[C@H](Cc1ccccc1)NC(=O)O[C@@H]1CO[C@H]2OCC[C@H]21)S(=O)(=O)c1ccc(N)cc1	nM	759
CC(C)CN(C[C@@H](O)[C@H](Cc1ccccc1)NC(=O)O[C@H]1CCOC1)S(=O)(=O)c1ccc(N)cc1	nM	741

Turning now to a further molecule:
INPUT: Suppose we examine the molecule `CC(C)CN(C[C@@H](O)[C@H](Cc1ccccc1)NC(=O)O[C@H]1CO[C@H]2OCC[C@H]21)S(=O)(=O)c1ccc(C#N)cc1` ; what EC50 value has been reported?
OUTPUT: 115

* * *

Test system: Human immunodeficiency virus 1
Experiment: Effective concentration against PI-Resistant HIV strain (M5)
Format: functional, organism-based
Conditions: Human immunodeficiency virus 1
pEC50: −log10 of the molar value.
Kind request: treat 8 as inclusive, so pEC50 at 8 or higher is Yes, anything lower is No.

INPUT: Has CC(C)CN(C[C@@H](O)[C@H](Cc1ccccc1)NC(=O)OC1COC2OCCC12)S(=O)(=O)c1ccccc1 (mixture of isomers) a recorded pEC50 greater than or equal to 8?
OUTPUT: No

INPUT: What do you have for `CC(C)CN(C[C@@H](O)[C@H](Cc1ccccc1)NC(=O)O[C@H]1CO[C@H]2OCC[C@H]21)S(=O)(=O)c1ccc(C#N)cc1` ?
OUTPUT: No

INPUT: What do you have for `CC(C)CN(C[C@@H](O)[C@H](Cc1ccccc1)NC(=O)O[C@H]1CCOC1)S(=O)(=O)c1ccc(N)cc1` ?
OUTPUT: No

INPUT: What do you have for `CC(C)CN(C[C@@H](O)[C@H](Cc1ccccc1)NC(=O)O[C@H]1CO[C@H]2OCC[C@H]21)S(=O)(=O)c1ccc(CN)cc1` ?
OUTPUT: Yes

INPUT: What do you have for `CC(C)CN(C[C@@H](O)[C@H](Cc1ccccc1)NC(=O)O[C@H]1CO[C@H]2OCC[C@H]21)S(=O)(=O)c1ccc(I)cc1` ?
OUTPUT: Yes

INPUT: What do you have for `CC(C)CN(C[C@@H](O)[C@H](Cc1ccccc1)NC(=O)O[C@H]1CO[C@H]2OCC[C@H]21)S(=O)(=O)c1cccc(N)c1` ?
OUTPUT: No

* * *

Quick list: pEC50 per entry.
Tested on: Human immunodeficiency virus 1
Experiment: Effective concentration against PI-Resistant HIV strain (M3)
Assay type: functional, organism-based
Settings: Human immunodeficiency virus 1
Units for pEC50: none; it is -log10 of a concentration expressed in mol/L.

Known results for molecules:
chem-smiles	pEC50
CC(C)CN(C[C@@H](O)[C@H](Cc1ccccc1)NC(=O)O[C@H]1CO[C@H]2OCC[C@H]21)S(=O)(=O)c1ccc([N+](=O)[O-])cc1	8.34
CC(C)CN(C[C@@H](O)[C@H](Cc1ccccc1)NC(=O)O[C@H]1CO[C@H]2OCC[C@H]21)S(=O)(=O)c1cccc(N)c1	7.55

Turning now to a further molecule:
INPUT: Lab request: please report pEC50 under test system Human immunodeficiency virus 1 for `CC(C)CN(C[C@@H](O)[C@H](Cc1ccccc1)NC(=O)O[C@H]1CO[C@H]2OCC[C@H]21)S(=O)(=O)c1ccc(O)cc1`
OUTPUT: 8.22

* * *

System: Human immunodeficiency virus 1
Test: Effective concentration of against HIV Wild Type (IIIB) strain
Assay type: functional, organism-based
Details: Human immunodeficiency virus 1
observable: EC50 (nM)
// return numeric value only (unit: nM, not printed)

Known results for molecules:
molecule	EC50 [nM]
CC(C)CN(C[C@@H](O)[C@H](Cc1ccccc1)NC(=O)O[C@H]1CO[C@H]2OCC[C@H]21)S(=O)(=O)c1ccc(CN)cc1	7.08
CC(C)CN(C[C@@H](O)[C@H](Cc1ccccc1)NC(=O)O[C@@H]1CO[C@@H]2OCC[C@@H]21)S(=O)(=O)c1ccc(N)cc1	10.7
CC(C)CN(C[C@@H](O)[C@H](Cc1ccccc1)NC(=O)O[C@H]1CO[C@H]2OCC[C@H]21)S(=O)(=O)c1ccc(O)cc1	6.31

INPUT: Suppose we examine the molecule `CC(C)CN(C[C@@H](O)[C@H](Cc1ccccc1)NC(=O)O[C@H]1CO[C@H]2OCC[C@H]21)S(=O)(=O)c1ccc([N+](=O)[O-])cc1` ; what EC50 value has been reported?
OUTPUT: 2.45

INPUT: What do you have for `CC(C)CN(C[C@@H](O)[C@H](Cc1ccccc1)NC(=O)O[C@H]1CO[C@H]2OCC[C@H]21)S(=O)(=O)c1ccc(C#N)cc1` ?
OUTPUT: 5.25

INPUT: What do you have for `CC(C)CN(C[C@@H](O)[C@H](Cc1ccccc1)NC(=O)O[C@H]1CO[C@H]2OCC[C@H]21)S(=O)(=O)c1ccc(I)cc1` ?
OUTPUT: 1.51

INPUT: What do you have for `CC(C)CN(C[C@@H](O)[C@H](Cc1ccccc1)NC(=O)O[C@@H]1CO[C@H]2OCC[C@H]21)S(=O)(=O)c1ccc(N)cc1` ?
OUTPUT: 240

INPUT: What do you have for `CC(C)CN(C[C@@H](O)[C@H](Cc1ccccc1)NC(=O)O[C@H]1CCOC1)S(=O)(=O)c1ccc(N)cc1` ?
OUTPUT: 37.2

INPUT: What do you have for `CC(C)CN(C[C@@H](O)[C@H](Cc1ccccc1)NC(=O)O[C@H]1CO[C@H]2OCC[C@H]21)S(=O)(=O)c1ccc2c(c1)OCO2` ?
OUTPUT: 0.617

INPUT: What do you have for Cc1ccc(S(=O)(=O)N(CC(C)C)C[C@@H](O)[C@H](Cc2ccccc2)NC(=O)OC2COC3OCCC23)cc1 (mixture of isomers) ?
OUTPUT: 5.25

INPUT: What do you have for CC(C)CN(C[C@@H](O)[C@H](Cc1ccccc1)NC(=O)OC1COC2OCCC12)S(=O)(=O)c1ccccc1 (mixture of isomers) ?
OUTPUT: 2.75

INPUT: What do you have for `CC(=O)c1ccc(S(=O)(=O)N(CC(C)C)C[C@@H](O)[C@H](Cc2ccccc2)NC(=O)O[C@H]2CO[C@H]3OCC[C@H]32)cc1` ?
OUTPUT: 1.95

* * *

Test system: Human immunodeficiency virus 1
Experiment: Effective concentration against PI-Resistant HIV strain (M1)
Format: functional, organism-based
Threshold 0.03 µM: EC50 strictly smaller gives rule met, otherwise rule not met.

molecule	label-value
CC(=O)c1ccc(S(=O)(=O)N(CC(C)C)C[C@@H](O)[C@H](Cc2ccccc2)NC(=O)O[C@H]2CO[C@H]3OCC[C@H]32)cc1	rule not met
CC(C)CN(C[C@@H](O)[C@H](Cc1ccccc1)NC(=O)O[C@H]1CO[C@H]2OCC[C@H]21)S(=O)(=O)c1ccc(N)cc1 (stereo in doubt; form 2)	rule met
Cc1ccc(S(=O)(=O)N(CC(C)C)C[C@@H](O)[C@H](Cc2ccccc2)NC(=O)OC2COC3OCCC23)cc1 (mixture of isomers)	rule not met
CC(C)CN(C[C@@H](O)[C@H](Cc1ccccc1)NC(=O)O[C@H]1CO[C@H]2OCC[C@H]21)S(=O)(=O)c1ccc(I)cc1	rule not met
CC(C)CN(C[C@@H](O)[C@H](Cc1ccccc1)NC(=O)O[C@H]1CO[C@H]2OCC[C@H]21)S(=O)(=O)c1ccc([N+](=O)[O-])cc1	rule not met

Now for another entry.
INPUT: Lab log: compare recorded EC50 with 0.03 µM; is it strictly lower for `COc1ccc(S(=O)(=O)N(CC(C)C)C[C@@H](O)[C@H](Cc2ccccc2)NC(=O)O[C@H]2CO[C@H]3OCC[C@H]32)cc1` ?
OUTPUT: rule met

* * *

Test: Area under concentration time curve value in dog after 80 mg/kg oral administration
Type: ADME, organism-based, Canis lupus familiaris
Set-up: dose 80 mg/kg, route oral
Conditions: in vivo
observable: AUC last

Known results for molecules:
molecule	AUC last
CC(C)CN(C[C@@H](O)[C@H](Cc1ccccc1)NC(=O)O[C@H]1CO[C@H]2OCC[C@H]21)S(=O)(=O)c1ccc(N)cc1 (stereo in doubt; form 2)	74100 ng·h/mL
CC(C)CN(C[C@@H](O)[C@H](Cc1ccccc1)NC(=O)O[C@H]1CO[C@H]2OCC[C@H]21)S(=O)(=O)c1ccc2c(c1)OCO2	18100 ng·h/mL

Turning now to a further molecule:
INPUT: Suppose we examine the molecule `COc1ccc(S(=O)(=O)N(CC(C)C)C[C@@H](O)[C@H](Cc2ccccc2)NC(=O)O[C@H]2CO[C@H]3OCC[C@H]32)cc1` ; what AUC last value has been reported?
OUTPUT: 2700 ng·h/mL
